- Test Description: Tmax in Sprague-Dawley rat at 21.3 mg/kg, po measured over 24 hrs by LC-MS analysis
- Format: ADME, organism-based
- Reported Conditions: in vivo
Experimental Endpoint: Tmax (h)
Record the value in h, omitting the unit from your answer.

Task: Endpoint output: Tmax of Cc1cc(NC2Cc3cc(F)c(F)cc3C2)n2nc(C(C)(F)F)nc2n1 . Value?
Output: 4

----------
- Test Description: Protein binding in Sprague-Dawley rat plasma at […], iv administered as infusion for 10 mins by LC-MS analysis
- Type: ADME, organism-based
- Reported Conditions: dose 2.6 mg/kg, read-out: PPB (converted)
Experimental Endpoint: fraction unbound at 10 min
In your answer, state the number alone without any accompanying words.

Task: Which fraction unbound at 10 min is listed for Cc1cc(Nc2ccc(S(F)(F)(F)(F)F)cc2)n2nc(C(C)(F)F)nc2n1 ?
Output: 0.023

----------
- Test Description: Apparent half-life in Sprague-Dawley rat at 2 mg/kg, iv administered as infusion for 10 mins by LC-MS analysis
- Assay type: ADME, organism-based
- Reported Conditions: in vivo, read-out: t1/2(app) (converted)
Experimental Endpoint: half-life

Task: GET /values?readout=half-life&item= Cc1cc(NC2CCc3cc(Br)ccc3C2)n2nc(C(C)(F)F)nc2n1 (stereo in doubt)
Output: 6.2 h

----------
- Test Description: Intrinsic clearance in human pooled liver microsomes assessed per mg protein at 1 uM by LC-MS analysis
- Type: ADME, Microsome
- Reported Conditions: pooled human liver microsomes
Experimental Endpoint: microsomal CLint at 1 µM

Task: What does the record list as microsomal CLint at 1 µM for Cc1cc(Nc2ccc(S(F)(F)(F)(F)F)cc2)n2nc(C(C)(F)F)nc2n1 [DSM-265] ?
Output: 4.3 µL/min/mg

----------
- Test Description: Protein binding in Swiss mouse plasma at 20 mg/kg, po administered as single dose via gavage measured over 24 hrs by LC-MS analysis
- Format: ADME, organism-based
- Reported Conditions: read-out: PPB (converted)
Listing of recorded fraction unbound at 24 h by entry.
Give the figure by itself; no unit, no explanation.

> print(dat)
                                   molecule     experimental.endpoint  quantitative.result
1  Cc1cc(NC2CCc3cc(Cl)ccc3C2)n2nc(C(C)(F)F)nc2n1 (stereo in doubt)  fraction unbound at 24 h                0.008
2  Cc1cc(NC2Cc3cc(F)c(F)cc3C2)n2nc(C(C)(F)F)nc2n1  fraction unbound at 24 h                0.047
3  Cc1cc(NC2CCc3ccc(Br)cc3C2)n2nc(C(C)(F)F)nc2n1 (stereo in doubt)  fraction unbound at 24 h                0.028
4  Cc1cc(N[C@H]2CCc3ccc(Cl)cc3C2)n2nc(C(C)(F)F)nc2n1  fraction unbound at 24 h                0.026

The record that follows has no fraction unbound at 24 h shown yet.
Task: Returns the measured fraction unbound at 24 h for the input molecule. Input: Cc1cc(NC2CCc3cc(Br)ccc3C2)n2nc(C(C)(F)F)nc2n1 (stereo in doubt)
Output: 0.008

----------
# key: entry, value: pIC50
- System Name: Cytochrome P450 2B6 (Homo sapiens, UniProt P20813)
- Sequence (P20813 whole entry, canonical isoform): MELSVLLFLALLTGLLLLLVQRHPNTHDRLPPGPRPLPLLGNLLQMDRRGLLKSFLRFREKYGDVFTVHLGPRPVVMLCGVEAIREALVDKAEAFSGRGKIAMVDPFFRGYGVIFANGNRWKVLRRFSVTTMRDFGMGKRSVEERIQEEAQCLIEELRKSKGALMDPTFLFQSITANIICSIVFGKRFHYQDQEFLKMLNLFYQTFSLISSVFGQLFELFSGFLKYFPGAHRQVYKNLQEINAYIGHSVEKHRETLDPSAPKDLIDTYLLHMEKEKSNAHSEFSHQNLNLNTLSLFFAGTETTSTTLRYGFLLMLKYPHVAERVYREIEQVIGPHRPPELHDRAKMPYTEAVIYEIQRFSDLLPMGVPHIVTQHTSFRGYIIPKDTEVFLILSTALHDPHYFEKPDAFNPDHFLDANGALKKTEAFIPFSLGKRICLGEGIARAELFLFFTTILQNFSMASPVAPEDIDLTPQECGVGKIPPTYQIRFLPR
- Test Description: Inhibition of CYP2B6 in human liver microsomes using isoform-specific probe substrates in presence of NADPH-generating system by LC-MS analysis
pIC50: −log10 of the molar value.

> print(dat)
                               smiles.input  result
1  Cc1cc(N[C@H]2CCc3ccc(Cl)cc3C2)n2nc(C(C)(F)F)nc2n1  < 4.70

Could you now look at the following compound, please?
Task: Fill in the recorded pIC50 for this compound, with Cytochrome P450 2B6 (Homo sapiens, UniProt P20813) as test system: Cc1cc(NC2Cc3cc(F)c(F)cc3C2)n2nc(C(C)(F)F)nc2n1
Output: < 4.70

----------
- Test Description: AUC (0 to infinity) in Sprague-Dawley rat at […], iv administered as infusion for 10 mins by LC-MS analysis
- Assay type: ADME, organism-based
- Design: route intravenous, dose 1.1 mg/kg, time 10 min
- Reported Conditions: in vivo
Experimental Endpoint: AUC(0-inf) at 10 min (µM·h)
Just the number please, in µM·h, no unit attached.

Task: Given the entry Cc1cc(NC2CCc3ccc(Br)cc3C2)n2nc(C(C)(F)F)nc2n1 (stereo in doubt) , report its measured AUC(0-inf) at 10 min.
Output: 2

----------
Parameter: IC50. Scope: all listed entries.
- System Name: Cytochrome P450 2C9 (Homo sapiens)
- Sequence (P11712 whole entry, canonical isoform): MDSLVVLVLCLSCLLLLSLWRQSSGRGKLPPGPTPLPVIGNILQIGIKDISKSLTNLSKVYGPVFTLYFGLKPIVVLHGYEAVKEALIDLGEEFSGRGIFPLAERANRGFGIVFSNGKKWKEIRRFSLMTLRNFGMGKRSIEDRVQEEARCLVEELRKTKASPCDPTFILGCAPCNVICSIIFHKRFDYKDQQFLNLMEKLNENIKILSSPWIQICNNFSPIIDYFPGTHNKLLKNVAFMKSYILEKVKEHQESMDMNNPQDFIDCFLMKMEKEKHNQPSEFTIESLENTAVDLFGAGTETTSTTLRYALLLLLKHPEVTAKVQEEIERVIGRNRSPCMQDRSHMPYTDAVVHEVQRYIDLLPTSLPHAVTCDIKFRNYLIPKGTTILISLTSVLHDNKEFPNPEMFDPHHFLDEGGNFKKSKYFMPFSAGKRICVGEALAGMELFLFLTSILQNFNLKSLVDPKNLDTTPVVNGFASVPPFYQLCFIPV
- Test Description: Inhibition of CYP2C9 in human liver microsomes using isoform-specific probe substrates in presence of NADPH-generating system by LC-MS analysis
Answer with a number only, understood to be in µM.

> print(dat)
                               smiles.input                         system.name  endpoint.unit  quantitative.result
1  Cc1cc(NC2Cc3cc(F)c(F)cc3C2)n2nc(C(C)(F)F)nc2n1  Cytochrome P450 2C9 (Homo sapiens)             µM                 18.5

Task: Which value of IC50 has been reported for Cc1cc(N[C@H]2CCc3ccc(Cl)cc3C2)n2nc(C(C)(F)F)nc2n1 in the records?
Output: 2.1

----------
- Test Description: AUC (0 to infinity) in Sprague-Dawley rat at 1.9 mg/kg, iv administered as infusion for 10 mins by LC-MS analysis
- Format: ADME, organism-based
- Parameters: route intravenous, dose 1.9 mg/kg, time 10 min
- Reported Conditions: in vivo
Experimental Endpoint: AUC(0-inf) (µM·h)
Please respond with the number in µM·h and leave the unit unwritten.

Task: What value of AUC(0-inf) has been recorded for this entry: Cc1cc(NC2CCc3cc(Cl)ccc3C2)n2nc(C(C)(F)F)nc2n1 (stereo in doubt)
Output: 24

----------
- Test Description: Cmax in Swiss mouse at 20 mg/kg, po administered as single dose via gavage measured over 24 hrs by LC-MS analysis
- Format: ADME, organism-based
- Set-up: route oral, dose 20 mg/kg, time >24
- Reported Conditions: in vivo
Experimental Endpoint: Cmax (µM)
Just the number please, in µM, no unit attached.

Below, 3 molecules whose answers are already recorded.
> print(dat)
                                   molecule  experimental.endpoint  quantitative.result
1  Cc1cc(NC2CCc3cc(Br)ccc3C2)n2nc(C(C)(F)F)nc2n1 (stereo in doubt)                   Cmax                  8.6
2  Cc1cc(NC2CCc3ccc(Br)cc3C2)n2nc(C(C)(F)F)nc2n1 (stereo in doubt)                   Cmax                  4.5
3  Cc1cc(NC2CCc3cc(Cl)ccc3C2)n2nc(C(C)(F)F)nc2n1 (stereo in doubt)                   Cmax                    7

Now, please, on to the next molecule.
Task: Fill in: Cmax of Cc1cc(N[C@H]2CCc3ccc(Cl)cc3C2)n2nc(C(C)(F)F)nc2n1 is ___
Output: 5

----------
- Test Description: AUC (0 to infinity) in Sprague-Dawley rat at 24.4 mg/kg, po measured over 24 hrs by LC-MS analysis
- Assay type: ADME, organism-based
- Parameters: route oral, dose 24.4 mg/kg, time >24
- Reported Conditions: in vivo
Experimental Endpoint: AUC(0-inf) (µM·h)
Report as a plain number; the unit µM·h is understood.

Task: Reported AUC(0-inf), compound Cc1cc(NC2CCc3cc(Br)ccc3C2)n2nc(C(C)(F)F)nc2n1 (stereo in doubt) : ____
Output: 318

----------
microsomal intrinsic clearance overview
- Test Description: Intrinsic clearance in human pooled liver microsomes assessed per mg protein at 1 uM by LC-MS analysis
- Type: ADME, Microsome
- Reported Conditions: microsomes, 1 µM
# output: bare number, implied unit µL/min

// known answers, use as guide
> print(dat)
                                   compound  quantitative.result
1  Cc1cc(NC2CCc3ccc(Cl)cc3C2)n2nc(C(F)(F)F)nc2n1 (stereo in doubt; 24)                    9
2  Cc1cc(NC2CCc3cc(F)c(F)cc3C2)n2nc(C(C)(F)F)nc2n1 (stereo in doubt; 19)                   11
3  COc1ccc2c(c1)CC(Nc1cc(C)nc3nc(C(C)(F)F)nn13)CC2 (stereo in doubt; 16)                   18

Task: Quick check: microsomal intrinsic clearance of Cc1cc(NC2Cc3cccc(F)c3C2)n2nc(C(C)(F)F)nc2n1 (stereo unspecified) ?
Output: 11

Hey, just so you know, these numbers are from ChEMBL document CHEMBL4706474.
